Where these numbers come from: PubChem BioAssay (NCI)

assay: NCI Yeast Anticancer Drug Screen. Data for the sgs1 mgt1 strain (AID 161);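 note: 0% = growth of cultures given vehicle only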; details: S. cerevisiae sgs1 mgt1 strain, at 5.0 µM (retest, dose inferred, filed as 0.5), active compounds read high
This is part of a sample that, as a whole, favours compounds with a hit. Of some 79,000 tested, about 15% had one in any assay.
Measured growth inhibition values are reported for all entries that follow.
experimental_endpoint: growth inhibition (%)

INSERT INTO measurements (compound, value_reported) VALUES
  ('CCC/C(=N\NC(=S)N(C)C)c1ccccn1', 88),
  ('C=CCNC(=S)N/N=C/c1nccc(-c2ccccc2)c1C', 46),
  ('Cc1c(C)c(C[P+](CCP(c2ccccc2)c2ccccc2)(c2ccccc2)c2ccccc2)c(C)c(C)c1C[P+](CCP(c1ccccc1)c1ccccc1)(c1ccccc1)c1ccccc1', 7),
  ('CCOC(=O)/C(C)=N/Nc1cc(Cl)ccc1O', 4),
  ('CC1=C(C#N)C(=O)N(C)C(=O)C1(Cl)Cl', 1),
  ('C=CCOC(=O)SC(=S)OCN(C)C', 1),
  ('COC(=O)C(C#N)C(c1ccccc1)c1c[nH]c2ccccc12 (stereo not drawn)', -5),
  ('CCCC[NH-].CCCC[NH-].[I][Pt+2][I]', 48),
  ('Fc1ccc(C2(CCCN3CCc4[nH]c5cc(F)ccc5c4C3)OCCO2)cc1', 25),
  ('O=C(Nc1ccccc1)ON=C1CCCCC1', 3),
  ('CC(C)CCN1CCC2(CCCCC2)CC1', 6),
  ('Cc1ccccc1Nc1nc(-c2ccccc2)nc(N)c1N=O', 32),
  ('CC(C)(C)[Si](C)(C)O/N=C\c1cccc(O[Si](C)(C)C(C)(C)C)c1', 0),
  ('Cc1ccc(NC(=O)CSC(N)=O)cc1C', 1),
  ('COC12C=CC(CC1)C1=C2C(=O)c2nc(C)c(C)nc2C1=O (stereo not drawn)', -1),
  ('O=C(O)Cc1c[nH]c2ccccc12', 42),
  ('Cn1c(=O)c2c(nc([N+](=O)[O-])n2C)n(C)c1=O', 4),
  ('N#C/C(=C/c1ccc([N+](=O)[O-])o1)c1ccccc1', -6),
  ('CC(c1ccccc1)[P+](c1ccccc1)(c1ccccc1)c1ccccc1 (stereo not drawn)', 11),
  ('CC(C)(C)c1ccc(-c2nc3ccccc3c(=O)o2)cc1', 14),
  ('O=c1cc(-c2ccccc2)oc2ccc(-c3ccc4oc(-c5ccccc5)cc(=O)c4c3)cc12', -10),
  ('CCC1CN2CCc3cc(OC)c(OC)cc3C2CC1CC1c2cc(OC)c(OC)cc2CCN1C(=O)C(Cc1c[nH]c2ccccc12)NC(=O)OC(C)(C)C (stereo not drawn)', -5),
  ('Cc1cnc2cccc(Cl)c2c1Cl', 19);
